As shown below, each of these binders has a reported glycan array binding signal (z-score) value.
# SYSTEM_NAME: Man(a1-2)Man(a1-3)Man
# METHOD_NOTES: glycan array binding signal (z-score within array); higher = stronger binding
# APPLIED_CONDITIONS: glycan notation: IUPAC condensed, linker removed
This excerpt belongs to a sample that is enriched for the strongest signals.

BINDER: Microvirin-2 (Microcystis aeruginosa) (protein) MPNFSHTCSSINYDPDSTILSAECQARDGEWLPTELRLSDHIGNIDGELQFGDQNFQETCQDCHLEFGDGEQSVWLVCTCQTMDGEWKSTQILLDSQIDNNDSQLEIGGSMPNFSHTCSSINYDPDSTILSAECQARDGEWLPTELRLSDHIGNIDGELQFGDQNFQETCQDCHLEFGDGEQSVWLVCTCQTMDGEWKSTQILLDSQIDNNDSQLEIG
glycan array binding signal (z-score): 4.43

BINDER: CML1 (Coprinopsis cinerea) (protein) MAIFHTGSELFIITRGPGKLTLLTWGGLNNLRSVIGAIPTENTGVTKWAVSFSHNYTRFSFIWEGQGEACYQIGNGLTRSPVGRSWSSSSTIHWGSSTVITEDVTSVVPGAVNRDKVTTAYALPDNL
glycan array binding signal (z-score): -0.348

BINDER: Mincle (Bos taurus) (protein) MNSSTSPASQTERRCFSFQLFSWAIAGTSILLLSACFITRCVVTYSIFQLCDEKKFQPPGDSMELSCYNDGSGSVKNCCPLKWFHFQSSCYLFSPDTMSWRASLKNCSSMGAHLVVINTQEEQEFLYYTKPRKKEFYIGLTDQVTEGQWQWVDGTPFTKSLSFWDAGEPNNLVIVEDCATIRDSSNPRQNWNDVPCFFNMFRVCEMPERKI
glycan array binding signal (z-score): 3.01
